# method: qHTS assay for small molecule activators of the heat shock response signaling pathway - cell viability counter screen (AID 743209); also: nearly all actives have a fitted effect of over 50% in size
# measurement-conditions: HSE-bla HeLa viability, CellTiter-Glo luminescence, 5 h; series mostly up to 62.6 µM
Records with an inconclusive call do not appear. Active and inactive are the calls of the source. Calls follow the shape of the dose curve; as a rule, active = well fitted cell-killing curve with a large enough effect in the repeat runs; inconclusive = weak or mixed curves, or effect the other way; inactive = no such curve, though single readings can be large or run the other way.
Respond with a class label; see active, inactive

Record excerpt, results attached:
molecule=Nc1ccc(Sc2ccc(N)cc2)cc1 class_label=inactive
molecule=CC(=O)[O-].[Tl+] class_label=inactive
molecule=FC(Cl)(Cl)Cl class_label=inactive

Called result for `[CH3][Hg][Cl]`
active

Hello, I am checking results. What call was entered for CC(Cc1ccc(C(C)(C)C)cc1)CN1C[C@@H](C)O[C@@H](C)C1 (some centres undefined) ?
inactive

Identify the outcome logged in this assay for the molecule shown: `CC(C)OS(C)(=O)=O`
inactive

Tell me the recorded outcome of this test for `CC(=O)[O-].CC(=O)[O-].[Hg+2]` .
active

In this assay, the call recorded for `C[C@@H]1O[C@@H](O[C@@H]2C=C3CC[C@@H]4[C@H](CC[C@]5(C)[C@@H](c6ccc(=O)oc6)CC[C@]45O)[C@@]3(C)CC2)[C@H](O)[C@H](O)[C@H]1O` was what?
active

Recorded test outcome, item `[Cl][Sb]([Cl])[Cl]`
inactive

Test call, this molecule: `BrCBr`
inactive

Answer briefly: the call reported for `CCCCCCCCCBr` in this assay.
inactive

Fill in: this test's call for `O=[N+]([O-])c1cc(C(F)(F)F)c(Cl)c([N+](=O)[O-])c1Cl` is ___
active

Please let me know the test result on file for `O=C(O)COc1nc(Cl)c(Cl)cc1Cl` .
inactive

In this assay, the call recorded for CC(C)(C)C(O)/C(=C\c1ccc(Cl)cc1Cl)n1cncn1 (centres undefined) was what?
inactive

---

# method: qHTS RealTime-Glo MT Cell Viability Assay in HepG2 cells - 32 hour (AID 1224877); also: nearly all actives have a fitted effect of over 55% in size
# measurement-conditions: RealTime-Glo luminescence; series mostly up to 76.8 µM
Records with an inconclusive call do not appear. The source made the active and inactive calls. The call rests on the fitted dose curve; in most records, active means well fitted cell-killing curve with a large enough effect in the repeat runs; inconclusive means weak or mixed curves; inactive means flat fitted curve, though single readings scatter.
Please answer using one outcome listed in 1 for active, -1 for inactive

Use these answered entries as a reference point.
compound=CCOC(=O)C1(c2ccccc2)CCN(CCC(C#N)(c2ccccc2)c2ccccc2)CC1 class_label=-1
compound="CC1(C)CC/C(=C/c2ccc(Cl)cc2)C1(O)Cn1cncn1 (centres undefined)" class_label=-1
compound=CCS(=O)(=O)c1cccnc1S(=O)(=O)NC(=O)Nc1nc(OC)cc(OC)n1 class_label=-1
compound=CCOCCOC(C)=O class_label=-1
compound=CCCN(CCC)CCc1c[nH]c2ccccc12 class_label=-1

What outcome does the record of this test show for `[Cl][Sb]([Cl])[Cl]` ?
-1

Assay result, entry `Cc1cc(C(F)(C(F)(F)F)C(F)(F)F)ccc1NC(=O)c1cccc(I)c1C(=O)NC(C)(C)CS(C)(=O)=O` — outcome?
-1

What is the recorded call for this compound in the test? `Oc1cc(Cl)c(Cl)c(Cl)c1`
-1

Recorded call for `N#C/C=C/C#N` ?
-1

Field: outcome | Entry: `ClCCN1CCOCC1`
-1

---

# method: qHTS assay to identify small molecule antagonists of the peroxisome proliferator-activated receptor gamma (PPARg) signaling pathway - cell viability counter screen (AID 743194); also: nearly all actives have a fitted effect of over 55% in size
# measurement-conditions: PPARg-bla HEK293H viability, CellTiter-Glo luminescence, 17 h; co-treated with 50 nM rosiglitazone unless noted; series mostly up to 62.6 µM
# Excerpt: U.S. Tox21 Program National Center for Advancing Translational Sciences [NCATS] NIH Chemical Genomics Center [NCGC] U.S. Environmental Protection Agency [EPA] National Institutes of Environmental Health Sciences [NIEHS] National Toxicology Program [NTP] U.S. Food and Drug Administration [FDA] […]
Results filed as inconclusive are left out. Activity calls are given as the source filed them. Calls follow the shape of the dose curve; as a rule, active = well fitted cell-killing curve with a large enough effect in the repeat runs; inconclusive = weak or mixed curves, or effect the other way; inactive = no such curve, though single readings can be large or run the other way.
Use one of these outcomes when replying: T (active), F (inactive)

Check out these entries, answers already filled in.
compound=CN(C)S(=O)(=O)N(SC(F)(Cl)Cl)c1ccccc1 class_label=T
compound=CC[C@H](C)[C@H]1O[C@]2(C=C[C@@H]1C)C[C@@H]1C[C@@H](C/C=C(\C)[C@@H](O[C@H]3C[C@H](OC)[C@@H](O[C@H]4C[C@H](OC)[C@@H](O)[C@H](C)O4)[C@H](C)O3)[C@@H](C)/C=C/C=C3\CO[C@@H]4[C@H](O)C(C)=C[C@@H](C(=O)O1)[C@]34O)O2 class_label=T

API: the following record is the query input.
Hey, what did the test say about `CCCCCCCCCCCCBr` ?
F
